Molecular target: prefusion conformation-stabilized SARS-CoV-2 spike ectodomain (S2Pecto) protein (SARS-CoV-2, UniProt P0DTC2 14-1213; P10104 458-484)
Assay: ELISA on coated S2Pecto
EXPERIMENTAL_ENDPOINT: EC50

The recorded EC50 for entry COV2-2098 (antibody, V domains shown) VH: EVQLLESGGGLIQPGGSLRLSCAASGFTFSNYAMSWVRQAPGKGLEWVSGIISTSGGATYNADSVRGRFTTSRDNSKNILYLQMNSLRGEDTAVYYCVKGLFDWFPLWGQGTMVTVSS VL: DIVMTQSPATLSVSPGERAILSCRASQSVRSNLAWYQQKPGQAPRLLISGASTRATAIPARFSGSGSGTEFTLTITSLQSEDCAVYYCHQYNNWPQTFGQGTKVEIK equals 1.3 ng/mL
